experiment: Plasma protein binding rate test, equilibrium dialysis, CD-1 mouse plasma; type: in vitro ADME; conditions: mouse plasma (M), equilibrium dialysis 37° C. 4 hours, read-out: plasma protein binding PPB bound (%) (converted)
Metric name: fraction unbound at 4 h, 2 μM

> print(dat)
                                   molecule  test.value
1  COc1cc(N2CCN(C3=Nc4ccsc4[C@H](CC(=O)O)N3c3cc(C(F)(F)F)ccc3OC)C[C@H]2C)ccn1 (single isomer, unassigned)       0.017
2  COc1cc(N2CCN(C3=Nc4c(csc4F)[C@H](CC(=O)O)N3c3cc(C(F)(F)F)ccc3OC)C[C@H]2C)ncn1 (single isomer, unassigned)       0.002
3  COc1cc(N2CCN(C3=Nc4c(csc4F)[C@H](CC(=O)O)N3c3cc(C(F)(F)F)ccc3OC)C[C@H]2C)ccn1 (single isomer, unassigned)       0.002

----------
system: US3-6-EGFP-HCMV-AD169 viruses; experiment: Fluorescence decay assay against human cytomegalovirus; assay type: cell-based, human cytomegalovirus (HCMV); conditions: Human betaherpesvirus 5, AD169, MRC5, 240 h
Metric name: EC50

> print(dat)
                                   compound  test.value
1  COc1ccc(C(F)(F)F)cc1N1C(N2CCN(c3ccc(F)cc3)CC2)=Nc2c(csc2F)[C@@H]1CC(=O)O (single isomer, unassigned)        1 nM
2  COc1cncc(N2CCN(C3=Nc4c(csc4F)[C@H](CC(=O)O)N3c3cc(C(F)(F)F)ccc3OC)C[C@H]2C)c1 (single isomer, unassigned)       17 nM
3  COc1cc(N2CCN(C3=Nc4cc(C)sc4[C@H](CC(=O)O)N3c3cc(C(F)(F)F)ccc3OC)C[C@H]2C)ccn1 (single isomer, unassigned)    0.849 nM

----------
Property: fraction unbound at 4 h, 2 μM; scope: individual compounds
assay: Plasma protein binding rate test, equilibrium dialysis, SD rat plasma; assay type: in vitro ADME; details: rat plasma (R), equilibrium dialysis 37° C. 4 hours, read-out: plasma protein binding PPB bound (%) (converted)
Metric name: fraction unbound at 4 h, 2 μM

> print(dat)
                                   compound  test.value
1  COc1cc(N2[C@H](C)CN(C3=Nc4ccsc4[C@H](CC(=O)O)N3c3cc(C(F)(F)F)ccc3OC)C[C@@H]2C)ccn1 (single isomer, unassigned)       0.023
2  COc1cc(N2CCN(C3=Nc4ccsc4[C@H](CC(=O)O)N3c3cc(C(F)(F)F)ccc3OC)C[C@H]2C)ccn1 (single isomer, unassigned)       0.061
3  COc1ccnc(N2CCN(C3=Nc4ccsc4[C@H](CC(=O)O)N3c3cc(C(F)(F)F)ccc3OC)C[C@H]2C)c1 (single isomer, unassigned)       0.041

----------
system: US3-6-EGFP-HCMV-AD169 viruses; assay: Fluorescence decay assay against human cytomegalovirus; format: cell-based, human cytomegalovirus (HCMV); details: Human betaherpesvirus 5, AD169, MRC5, 240 h
Catalogue of EC50 readings, one per entry.
Metric name: EC50

> print(dat)
                                   molecule                  tested.system  metric.name  test.value
1  COc1cccc(N2CCN(C3=Nc4c(csc4F)[C@H](CC(=O)O)N3c3cc(C(F)(F)F)ccc3OC)CC2)c1 (single isomer, unassigned) [WX-076]  US3-6-EGFP-HCMV-AD169 viruses         EC50        1 nM
2  CC[C@@H]1CN(C2=Nc3ccsc3[C@H](CC(=O)O)N2c2cc(C(F)(F)F)ccc2OC)CCN1c1cccc(OC)c1 (single isomer, unassigned) [WX-170]  US3-6-EGFP-HCMV-AD169 viruses         EC50    0.264 nM
3  COc1cc(N2[C@H](C)CN(C3=Nc4cscc4[C@H](CC(=O)O)N3c3cc(C(F)(F)F)ccc3OC)C[C@@H]2C)ccn1 (single isomer, unassigned) [WX-198]  US3-6-EGFP-HCMV-AD169 viruses         EC50    0.713 nM
